Biological target: EGFR (Homo sapiens)
Sequence (P00533 25-1210): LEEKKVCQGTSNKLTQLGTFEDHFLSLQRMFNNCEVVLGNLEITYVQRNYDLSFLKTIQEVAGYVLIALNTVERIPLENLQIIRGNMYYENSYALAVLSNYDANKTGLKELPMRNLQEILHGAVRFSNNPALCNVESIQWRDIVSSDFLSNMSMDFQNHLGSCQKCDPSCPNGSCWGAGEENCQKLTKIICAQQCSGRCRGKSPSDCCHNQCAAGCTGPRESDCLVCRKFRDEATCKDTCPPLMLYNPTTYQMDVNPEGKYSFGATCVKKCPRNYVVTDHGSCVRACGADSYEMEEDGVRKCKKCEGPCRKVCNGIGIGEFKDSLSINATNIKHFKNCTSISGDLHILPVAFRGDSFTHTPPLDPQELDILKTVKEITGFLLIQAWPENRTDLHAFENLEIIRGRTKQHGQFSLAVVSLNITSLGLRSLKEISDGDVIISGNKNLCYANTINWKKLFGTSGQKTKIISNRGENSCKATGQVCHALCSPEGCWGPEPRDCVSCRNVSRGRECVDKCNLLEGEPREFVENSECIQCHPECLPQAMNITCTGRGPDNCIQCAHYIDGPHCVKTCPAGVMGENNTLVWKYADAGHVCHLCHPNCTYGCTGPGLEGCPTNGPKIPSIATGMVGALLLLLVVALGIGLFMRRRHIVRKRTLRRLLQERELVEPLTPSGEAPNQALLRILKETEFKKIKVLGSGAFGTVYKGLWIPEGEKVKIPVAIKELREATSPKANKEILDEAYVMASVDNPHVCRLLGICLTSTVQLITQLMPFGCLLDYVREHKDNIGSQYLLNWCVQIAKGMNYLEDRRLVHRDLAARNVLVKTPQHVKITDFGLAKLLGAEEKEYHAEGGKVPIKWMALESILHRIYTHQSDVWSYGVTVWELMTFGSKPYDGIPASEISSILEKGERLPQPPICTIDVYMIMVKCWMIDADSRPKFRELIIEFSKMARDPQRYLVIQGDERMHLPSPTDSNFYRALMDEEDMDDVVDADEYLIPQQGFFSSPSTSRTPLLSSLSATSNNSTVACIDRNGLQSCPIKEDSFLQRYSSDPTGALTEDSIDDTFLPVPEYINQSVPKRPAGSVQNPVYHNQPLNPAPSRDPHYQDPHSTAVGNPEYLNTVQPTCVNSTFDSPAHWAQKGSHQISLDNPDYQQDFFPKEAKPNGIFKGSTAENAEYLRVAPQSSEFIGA
Test: FRET-based Z'-Lyte kinase assay
Design: purchased ThermoFisher Scientific (contract research organization)
Conditions: read-out: Biochemical Inhibition, IC50
QUANTITY: IC50

Simply: C=CC(=O)Nc1cccc(Oc2nc(Nc3ccc(N4CCN(C)CC4)cc3)nc3ccoc23)c1 [HM71224] , EGFR (Homo sapiens), IC50 = 4.96 nM

###

Target: BLK (Homo sapiens, UniProt P51451)
Sequence (P51451 whole entry): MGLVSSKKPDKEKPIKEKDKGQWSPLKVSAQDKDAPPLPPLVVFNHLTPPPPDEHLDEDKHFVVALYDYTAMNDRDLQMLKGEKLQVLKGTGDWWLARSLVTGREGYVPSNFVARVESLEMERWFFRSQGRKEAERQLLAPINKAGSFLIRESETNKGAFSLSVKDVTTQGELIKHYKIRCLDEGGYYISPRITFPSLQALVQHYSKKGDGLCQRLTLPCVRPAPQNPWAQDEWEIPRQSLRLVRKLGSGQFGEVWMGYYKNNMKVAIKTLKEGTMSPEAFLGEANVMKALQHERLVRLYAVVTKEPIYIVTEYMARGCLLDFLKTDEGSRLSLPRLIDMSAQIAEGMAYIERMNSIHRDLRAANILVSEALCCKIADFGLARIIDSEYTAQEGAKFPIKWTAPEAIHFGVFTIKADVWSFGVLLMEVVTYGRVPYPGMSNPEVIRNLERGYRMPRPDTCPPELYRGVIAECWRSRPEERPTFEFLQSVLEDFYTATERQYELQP
QUANTITY: IC50 (nM)
Give bare numbers, in nM.

Data point: `C=CC(=O)Nc1cccc(Oc2nc(Nc3ccc(N4CCN(C)CC4)cc3)nc3ccoc23)c1` ; IC50 = 13.5
